melting point reference
result.type: melting point

In [3]: df
Out[3]:
                                   compound     meas_value
0       CC(=O)Oc1cc(C(C)=O)cc(C#N)c1OC(C)=O    76 to 79 °C
1                         CCCOc1cnc(CN)cc1O  159 to 160 °C
2  Fc1cc(CC2(Cc3ccncc3)c3cccnc3-c3sccc32)ccn1 (stereo not given)  192 to 193 °C
3  Cc1cc(C)cc(Nc2nccc(-n3ccnc3-c3ccccc3)n2)c1         183 °C
4  COc1cc(C(=O)O)ccc1Cc1nn(C)c2ccc(NC(=O)OC3CCCC3)cc12  216 to 217 °C
5              CCCCc1nc(C(=O)CC)c(C#N)[nH]1    84 to 85 °C
6  CCOC(=O)C1=C(C)NC(c2csc(N)n2)=NC1c1ccc(F)cc1Cl (stereo not given)   95 to 110 °C
7  CC1(C)COP(N(CCCN(C2CC(C)(C)NC(C)(C)C2)P2OCC(C)(C)CO2)C2CC(C)(C)NC(C)(C)C2)OC1         102 °C
8              CC(=O)c1cc(NS(C)(=O)=O)ccc1O  121 to 122 °C
9  Cc1cnc2c(NC(=O)c3c(Cl)cccc3Cl)ccc(C)c2c1N1CCN(C)C1=O       > 300 °C

----------
melting point reference
result.type: melting point

>>> df
                                   compound     meas_value
0  Cc1nc(Nc2ccc(Cl)cc2)sc1-c1nc2ccccc2c(=O)n1-c1ccccc1  230 to 232 °C
1                        Fc1ccc2scc(Br)c2c1    79 to 80 °C
2  CCn1c(=O)c(-c2c(Cl)cccc2Cl)cc2cnc(Nc3ccc(OC)cc3)nc21  213 to 215 °C
3  CCC(C)C(NC(c1ccccc1)c1ccccc1)P(O)O (stereo not given)  174 to 176 °C
4  Cc1cc(-c2cc3cc(OCCNC[C@H](O)c4cccc(C(F)(F)F)c4)ccc3o2)no1  126 to 127 °C
5  COc1ccc2c(c1)C(C(=O)N(Cc1ccc(-n3ccnc3)cc1)c1ccc(C(C)C)cc1)CCC2 (stereo not given)         111 °C
6  FC(F)c1nc2ccccc2n1-c1nc(Nc2ccncn2)nc(N2CCOCC2)n1  233 to 235 °C
7  COc1ccc(C(O)Cc2c(Cl)cncc2Cl)cc1OC1CCCC1 (stereo not given)  124 to 125 °C
8  CN1CCOC(C2=C(C#N)C(c3cccc4nonc34)c3c[nH]nc3N2)C1 (stereo not given)         143 °C
9  COC(=O)c1nccnc1Nc1ccc(Cl)cc1[N+](=O)[O-]  191 to 192 °C

----------
melting point reference
result.type: melting point

                                   compound     meas_value
0       COc1cc2nc(N)nc(-c3ccc(I)cc3)c2cc1OC  240 to 242 °C
1     CN1CCCC1=C(C#N)c1ccc([N+](=O)[O-])cc1          67 °C
2  CCc1nc(-c2cc3cc(OCCNC[C@H](O)COc4ccccc4)ccc3o2)no1    97 to 98 °C
3  CC(=O)OCC(=O)C1(O)C(C)CC2C3CCC4=CC(=O)C=CC4(C)C3=CCC21C (stereo not given)  202 to 205 °C
4       COC(=O)C(=O)c1ccc(OCC#Cc2ccccc2)cc1    57 to 59 °C
